- Experimental Target: Nav1.7 (or SCN9A) channel (Homo sapiens)
- Test Name: Nav1.7 (hSCN9A) PatchXpress electrophysiology assay
- Test Parameters: estimated IC50 from single point electrophysiology data; PatchXpress platform; HEK cells expressing hSCN9A, held at V1/2 of inactivation; read-out: Nav1.7 EIC50
- Description: The ability of the compounds of formula (I) to block the Nav1.7 (or SCN9A) channel were measured using the assay described below. Human Embryonic Kidney (HEK) cells were transfected with an hSCN9A construct using lipofectamine reagent (Invitrogen), using standard techniques. […] hSCN9A currents in HEK cells were measured using the whole-cell configuration of the patch-clamp technique (Hamill et al., 1981). […]
Counter-ions that a name gives are not always drawn.
Property: IC50 (nM)
Unit nM implied. Number only.

*Q* Which IC50 value belongs to CC(C)COc1ncc(Oc2cc(F)c(C(=O)NS(=O)(=O)N(C)C)cc2F)cc1Cl [Example 2] ?
*A* 130

*Q* Which IC50 value belongs to CN(C)S(=O)(=O)NC(=O)c1cc(F)c(Oc2cnc(N3CCCC3)c(Cl)c2)cc1F [Example 26, formate salt] ?
*A* 480

*Q* Which IC50 value belongs to CC(C)Oc1ncc(Oc2cc(F)c(C(=O)NS(=O)(=O)N3CCC3)cc2F)cc1Cl [Example 38] ?
*A* 180

---

- Experimental Target: Nav1.7 (or SCN9A) channel (Homo sapiens, UniProt Q15858)
- Sequence (Q15858 whole entry): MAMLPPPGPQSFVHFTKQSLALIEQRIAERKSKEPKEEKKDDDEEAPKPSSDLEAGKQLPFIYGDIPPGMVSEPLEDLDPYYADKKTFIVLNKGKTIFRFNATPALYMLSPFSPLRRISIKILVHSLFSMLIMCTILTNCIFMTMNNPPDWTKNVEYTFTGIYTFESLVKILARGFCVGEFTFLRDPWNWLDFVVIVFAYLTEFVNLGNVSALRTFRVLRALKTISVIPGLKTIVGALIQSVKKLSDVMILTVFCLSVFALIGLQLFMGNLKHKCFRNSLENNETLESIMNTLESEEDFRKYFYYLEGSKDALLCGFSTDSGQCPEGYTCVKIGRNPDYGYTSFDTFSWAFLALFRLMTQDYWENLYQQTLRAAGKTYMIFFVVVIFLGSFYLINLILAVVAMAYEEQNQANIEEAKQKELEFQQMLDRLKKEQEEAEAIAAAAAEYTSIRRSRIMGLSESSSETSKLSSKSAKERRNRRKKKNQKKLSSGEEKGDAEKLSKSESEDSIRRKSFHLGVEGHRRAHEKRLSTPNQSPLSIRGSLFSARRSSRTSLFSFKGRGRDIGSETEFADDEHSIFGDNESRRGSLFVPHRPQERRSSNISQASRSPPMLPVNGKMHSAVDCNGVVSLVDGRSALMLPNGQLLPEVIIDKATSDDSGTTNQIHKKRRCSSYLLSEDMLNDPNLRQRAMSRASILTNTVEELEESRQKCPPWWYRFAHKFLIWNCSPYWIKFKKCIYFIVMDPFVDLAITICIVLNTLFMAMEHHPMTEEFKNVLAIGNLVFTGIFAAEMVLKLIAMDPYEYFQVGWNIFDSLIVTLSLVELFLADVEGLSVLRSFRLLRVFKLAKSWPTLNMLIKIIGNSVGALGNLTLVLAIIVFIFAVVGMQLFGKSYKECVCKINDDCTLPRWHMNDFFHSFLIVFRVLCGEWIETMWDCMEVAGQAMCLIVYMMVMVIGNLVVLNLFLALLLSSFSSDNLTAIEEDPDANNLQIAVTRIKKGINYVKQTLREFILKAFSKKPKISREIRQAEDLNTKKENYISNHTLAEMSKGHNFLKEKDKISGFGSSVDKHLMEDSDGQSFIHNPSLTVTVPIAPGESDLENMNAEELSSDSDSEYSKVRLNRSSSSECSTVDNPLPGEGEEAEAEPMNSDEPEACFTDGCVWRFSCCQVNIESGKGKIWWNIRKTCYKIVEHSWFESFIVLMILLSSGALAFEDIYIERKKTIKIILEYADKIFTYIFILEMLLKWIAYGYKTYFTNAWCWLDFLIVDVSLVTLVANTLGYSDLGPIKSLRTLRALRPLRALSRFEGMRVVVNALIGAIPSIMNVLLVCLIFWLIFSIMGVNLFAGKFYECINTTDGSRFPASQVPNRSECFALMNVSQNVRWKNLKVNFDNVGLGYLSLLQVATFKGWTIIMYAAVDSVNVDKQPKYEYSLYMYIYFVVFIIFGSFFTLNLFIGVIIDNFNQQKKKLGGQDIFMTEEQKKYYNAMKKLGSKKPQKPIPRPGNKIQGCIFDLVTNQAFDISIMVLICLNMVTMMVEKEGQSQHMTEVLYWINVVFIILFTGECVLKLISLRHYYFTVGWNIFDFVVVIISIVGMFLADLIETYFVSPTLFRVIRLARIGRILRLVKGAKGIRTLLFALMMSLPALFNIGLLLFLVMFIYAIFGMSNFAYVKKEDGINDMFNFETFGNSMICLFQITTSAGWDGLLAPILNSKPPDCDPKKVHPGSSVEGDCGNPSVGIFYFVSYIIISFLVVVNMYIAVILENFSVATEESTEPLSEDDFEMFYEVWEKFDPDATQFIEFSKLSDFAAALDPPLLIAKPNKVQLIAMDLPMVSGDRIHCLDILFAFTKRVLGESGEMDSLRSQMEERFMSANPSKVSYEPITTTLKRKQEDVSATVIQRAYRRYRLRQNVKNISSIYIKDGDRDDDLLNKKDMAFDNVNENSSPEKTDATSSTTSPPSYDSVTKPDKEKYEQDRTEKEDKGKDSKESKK
- Test Name: Nav1.7 (hSCN9A) PatchXpress electrophysiology assay
- Test Parameters: estimated IC50 from single point electrophysiology data; PatchXpress platform; HEK cells expressing hSCN9A, held at V1/2 of inactivation; read-out: Nav1.7 EIC50
pIC50: −log10 of the molar value. Where a name gives a salt, the structure may show the parent alone.
Criterion met means recorded pIC50 is 6 or above; Criterion not met means it is below 6.

*Q* Could you tell me if the measured pIC50 of COc1ccccc1Oc1cc(F)c(C(=O)NS(=O)(=O)N(C)C)cc1Cl reaches 6 or more?
*A* Criterion not met

*Q* Could you tell me if the measured pIC50 of CNc1ncc(Oc2cc(F)c(C(=O)NS(=O)(=O)N(C)C)cc2F)cc1Cl [Example 25, formate salt] reaches 6 or more?
*A* Criterion not met

*Q* Could you tell me if the measured pIC50 of [2H]C([2H])([2H])C([2H])(Oc1ncc(Oc2cc(F)c(C(=O)NS(=O)(=O)N(C)C)cc2F)cc1Cl)C([2H])([2H])[2H] reaches 6 or more?
*A* Criterion met

*Q* Could you tell me if the measured pIC50 of NS(=O)(=O)NC(=O)c1ccc(Oc2ccc(Cl)cc2-c2ccnnc2)cc1 reaches 6 or more?
*A* Criterion not met

*Q* Could you tell me if the measured pIC50 of CN(C)S(=O)(=O)NC(=O)c1ccc(Oc2ccc(Cl)c(C(F)(F)F)c2)cc1 reaches 6 or more?
*A* Criterion not met

*Q* Could you tell me if the measured pIC50 of CN(C)S(=O)(=O)NC(=O)c1cc(F)c(Oc2cnc(OC(C(F)(F)F)C(F)(F)F)c(Cl)c2)cc1F reaches 6 or more?
*A* Criterion met

*Q* Could you tell me if the measured pIC50 of CNS(=O)(=O)NC(=O)c1cc(F)c(Oc2cnc(OC(C)C)c(Cl)c2)cc1F reaches 6 or more?
*A* Criterion not met

*Q* Could you tell me if the measured pIC50 of CC(C)COc1ncc(Oc2ccc(C(=O)NS(=O)(=O)N(C)C)cc2)cc1Cl reaches 6 or more?
*A* Criterion not met

*Q* Could you tell me if the measured pIC50 of CN(C)S(=O)(=O)NC(=O)c1cc(F)c(Oc2cc(C(F)(F)F)c(Cl)cn2)cc1F reaches 6 or more?
*A* Criterion not met

*Q* Could you tell me if the measured pIC50 of COc1ccccc1Oc1cc(F)c(C(=O)NS(=O)(=O)N(C)C)cc1F reaches 6 or more?
*A* Criterion not met

*Q* Could you tell me if the measured pIC50 of COc1ccccc1Oc1ccc(C(=O)NS(=O)(=O)N(C)C)cc1 reaches 6 or more?
*A* Criterion not met

*Q* Could you tell me if the measured pIC50 of COc1cc(Cl)ccc1Oc1cc(F)c(C(=O)NS(=O)(=O)N(C)C)cc1F reaches 6 or more?
*A* Criterion not met

*Q* Could you tell me if the measured pIC50 of C[C@@H]1CCCN1c1ncc(Oc2cc(F)c(C(=O)NS(=O)(=O)N(C)C)cc2F)cc1Cl [Example 29, formate salt] reaches 6 or more?
*A* Criterion met

Data provenance: patent US20150291514A1
